System: CCRIS mutagenicity, Ames/micronucleus/aberration tests
test.method.notes: CCRIS mutagenicity studies
setup.conditions: Test System: AMES SALMONELLA TYPHIMURIUM; Strain/Indicator: TA1535; Metabolic Activation: NONE; Method: STANDARD PLATE
Source text: The CCRIS database contains chemical records with carcinogenicity, mutagenicity, tumor promotion, and tumor inhibition test results. It was developed by the National Cancer Institute (NCI). Data are derived from studies cited in primary journals, current awareness tools, NCI reports, and other sources. Test results have been reviewed by experts in carcinogenesis and mutagenesis. CCRIS provides historical information from the years 1985 - 2011. It is no longer updated. […]
Active and inactive are the calls of the source. The rule behind the calls is not given here.
parameter: mutagenic call

{"columns": ["smiles.notation", "parameter", "observed"],
 "data": [
  ["CO/N=C(\\C(=O)N[C@@H]1C(=O)N2C(C(=O)O)=C(CSC(=O)c3ccco3)CS[C@H]12)c1csc(N)n1", "mutagenic call", "inactive; negative"],
  ["C=CC(=O)O", "mutagenic call", "inactive; negative"],
  ["C[Si](C)(C)N[Si](C)(C)C", "mutagenic call", "inactive; negative"]
]}

----------
Tested on: CCRIS mutagenicity, Ames/micronucleus/aberration tests
test.method.notes: CCRIS mutagenicity studies
setup.conditions: Test System: MOUSE LYMPHOMA; Strain/Indicator: L5178Y (TK+/TK-); Metabolic Activation: NONE; Method: SUSPENSION/PLATE
Active and inactive are the calls of the source. The rule behind the calls is not given here.
parameter: mutagenic call

{"columns": ["molecule", "mutagenic call"],
 "data": [
  ["CC(CCC(=O)O)(c1ccc(O)cc1)c1ccc(O)cc1", "active; positive"],
  ["CSCCC=O", "active; positive"],
  ["CN(C)C=O", "inactive; negative"],
  ["Cc1ccc(N=C=O)cc1N=C=O", "active; positive"],
  ["CCC(Cl)C(Cl)C(Cl)CC(Cl)C(Cl)C(C)Cl (configuration not stated)", "active; positive"],
  ["O=Cc1ccco1", "active; positive"],
  ["O=C(O)CCC(=O)OC[C@@H](NC(=O)C(Cl)Cl)[C@H](O)c1ccc([N+](=O)[O-])cc1", "active; positive"],
  ["Clc1nc(Cl)nc(Nc2ccccc2Cl)n1", "active; positive"],
  ["CN(C)CCN(Cc1cccs1)c1ccccn1", "inactive; negative"],
  ["CC1=NN(c2ccccc2)C(=O)C1", "inactive; negative"]
]}

Challenge: Supply mutagenic call value. Item: `O=S1(=O)OC(c2cc(Br)c(O)c(Br)c2)(c2cc(Br)c(O)c(Br)c2)c2ccccc21`
Response given: inactive; negative

Challenge: Supply mutagenic call value. Item: `CCCCCCc1ccc(O)cc1O`
Response given: inactive; negative

Challenge: Supply mutagenic call value. Item: `Cc1c2ccccc2c(C)c2c1ccc1ccccc12`
Response given: inactive; negative

Challenge: Supply mutagenic call value. Item: `CCO`
Response given: inactive; negative

Challenge: Supply mutagenic call value. Item: `CCCCOCCOCCO`
Response given: active; positive

Challenge: Supply mutagenic call value. Item: `O=S1(=O)OC(c2cc(Br)c(O)c(Br)c2)(c2cc(Br)c(O)c(Br)c2)c2c(Br)c(Br)c(Br)c(Br)c21`
Response given: inactive; negative

----------
Test system: CCRIS mutagenicity, Ames/micronucleus/aberration tests
test.method.notes: CCRIS mutagenicity studies
setup.conditions: Test System: AMES SALMONELLA TYPHIMURIUM; Strain/Indicator: TA98; Metabolic Activation: RAT, LIVER, S-9; Method: STANDARD PLATE
Description: The CCRIS database contains chemical records with carcinogenicity, mutagenicity, tumor promotion, and tumor inhibition test results. It was developed by the National Cancer Institute (NCI). Data are derived from studies cited in primary journals, current awareness tools, NCI reports, and other sources. Test results have been reviewed by experts in carcinogenesis and mutagenesis. CCRIS provides historical information from the years 1985 - 2011. It is no longer updated. […]
The source made the active and inactive calls. How the calls were made is not given here.

{"columns": ["smiles.notation", "mutagenic call"],
 "data": [
  ["CC(=O)N(O)c1ccc2c(c1)Cc1ccccc1-2", "active; positive"],
  ["COc1cc(-c2ccc(N=C=O)c(OC)c2)ccc1N=C=O", "active; positive"],
  ["Oc1cccc(O)c1", "active; positive"]
]}
